# credit: PubChem BioAssay (NCI)

Would you kindly list growth for each of these compounds?
Test system: CCRF-CEM leukemia
Assay: NCI-60 one-dose screen, 48 h (100 = growth as untreated, 0 = no growth, -100 = all killed)
Details: 10 µM unless noted
This is part of a sample that, as a whole, favours compounds with a hit. Of some 83,000 tested, about 20% had one in any assay.
The response must be a number in % with no trailing unit.

Q. Assign growth to the following record: Nc1c(Cl)cc(/C=C2\C=Cc3ccccc32)cc1Cl
A. 106

Q. Complete the entry with growth for CCOC(=O)c1c(NC(=O)c2ccccc2)sc2c3c(ccc12)OCN(C)C3
A. -0.327

Q. Give growth for Cc1nc(N/N=C/c2cn(-c3ccccc3)nc2-c2cc3ccccc3oc2=O)sc1N=Nc1ccccc1
A. 94.3

Q. Give a short answer stating reported growth for O=c1oc2ccccc2cc1-c1nn(-c2ccccc2)cc1-c1nn[nH]n1 .
A. 104

Q. Give growth for Nc1ncnc2c1N=C(c1ccc(F)cc1)CC(c1cccc(Nc3ccnc4cc(Cl)ccc34)c1)N2 (stereo not drawn)
A. 74.1

Q. Please look at this compound and report its growth: COC(=O)c1nc(-c2ccccc2)oc1S(=O)(=O)N1CCCC(C)C1 (stereo not drawn)
A. 1.21

Q. State its growth: Fc1ccc2[nH]cc(-c3nc(-c4c[nH]c5c(Cl)nccc45)cs3)c2c1
A. 28.5

Q. Quick one: give measured growth for c1cc(OCCN2CCCC2)ccc1CNc1ccc2nc(CCC3CCCCC3)[nH]c2c1
A. 12.7

Q. Name the recorded growth of the item CCN(CC)C(=O)CC1=C(C)/C(=C/c2[nH]c(-c3ccc[nH]3)cc2OC)N=C1C in your answer.
A. 25.8

Q. Determine from records and report growth for CCOC(=O)NCCCC(=O)NCCc1ccccc1
A. 108

Q. Assign growth to the following record: CCn1cc(C(=O)O)c(=O)c2cc(F)c(N3CCN(CC(=O)Nc4ccccc4)C(C)C3)c(F)c21 (stereo not drawn)
A. 96.7

Q. Supply reported growth belonging to this compound: COc1ccc(C2CC(n3ccnc3)c3cc(OC)c(OC)c(OC)c32)cc1O (stereo not drawn)
A. 90.9

Q. Return growth (reported value) for this compound: CN(C)CCCC1(c2ccc(F)cc2)OCc2cc(-c3csc4ccccc34)ccc21 (stereo not drawn)
A. -14.3

---

Tested on: SK-MEL-2 melanoma
Assay: NCI-60 one-dose screen, 48 h (100 = growth as untreated, 0 = no growth, -100 = all killed)
Conditions: 10 µM unless noted
Compounds without any hit were thinned out: in the full panel of roughly 83,000, 20% have a hit. Calls of active or inactive are those of the source. Rule for the calls: active = growth percent below 10; inactive = the rest.
assayEndpoint: growth

Q. Consider the compound CN1C(=O)N2CN3CCCN(C3)CN3C(=S)NC1C23 (stereo unspecified) . State its measured growth.
A. 108% (inactive)

Q. # return recorded growth for input CCN(CC)c1ccc(-c2cc(-c3cc(OC)c(OC)c(OC)c3)nc(N3CCC(O)CC3)c2C#N)cc1
A. -66.6% (active)

Q. Answer with the recorded growth for the compound listed here: C=C1C(=O)O[C@H]2[C@H]1CC/C(COC(=O)C(=O)c1c[nH]c3ccc(Cl)cc13)=C\CC[C@@]1(C)O[C@@H]21
A. -58.9% (active)

Q. Write down growth measured for item CN1CCOCCN(C)Cc2ccc3ccc(cc3c2)CN(C)CCOCCN(C)Cc2ccc3ccc(cc3c2)C1
A. 114% (inactive)

Q. Specify growth for CCN1C(=O)N(c2ccccc2)C2NC(=S)N(/N=C/C=C/c3ccccc3OC)C21 (stereo unspecified) and stop.
A. 50.8% (inactive)

Q. Fill in growth for record CC(C)n1c2ccc(Br)cc2c2c3c(c4c5ccccc5ccc4c21)C(=O)NC3=O
A. 111% (inactive)

Q. Find the measured growth of C#Cc1cccc(NC(=O)C2CCCCN2C(=O)CCl)c1 (stereo unspecified) and report it.
A. -51.7% [8.25 µM] (active)

Q. Write down growth measured for item [N-]=[N+]=NCC1OC(n2cnc3c(NC(=O)Nc4ccccc4)ncnc32)C2OC(=O)CC12 (stereo unspecified)
A. 90.7% (inactive)

Q. Give recorded growth. CS(=O)(=O)Nc1cc(-c2ccc3ncnc(Nc4ccc5c(cnn5Cc5ccccc5F)c4)c3c2)cnc1Cl
A. 15.3% (inactive)

Q. Give growth for the following compound: COC12C=C/C(=C(/C(=O)OCc3csc(SC)n3)C(=O)CCCCCCCCC3(OC)C=C/C(=C(/C(=O)OCc4cnc(SC)s4)C(=O)CCCCCCCC1)O3)O2 (stereo unspecified)
A. 55.8% (inactive)

Q. Recall and state the measured growth for COc1ccc(C(c2cc(OC)c(OC)c(OC)c2)N2CCCCC2)cc1 (stereo unspecified) .
A. 22% (inactive)

Q. State, in one line, measured growth of C=CC(CC(c1ccccc1)(c1ccccc1)c1ccccc1)N(CC)CC (stereo unspecified)
A. 93.7% (inactive)

Q. Recall and state the measured growth for O=c1cc(-c2ccccc2)nc(SCc2nc3cc(Cl)c(Cl)cc3[nH]2)[nH]1 .
A. 91.3% (inactive)

Q. Determine its reported growth: O=c1ccc2ccc(OCCN3CCCCC3)cc2o1
A. 101% (inactive)

Q. Provide growth value for the following compound: CN(C)CCC(=O)C1CC1
A. 111% (inactive)

Q. Given COC(=O)c1c2c(c(C)[n+]([O-])c1C)C(=O)C(NCc1ccccc1)=CC2=O , respond with its growth.
A. 23.6% (inactive)
